# experimentalTarget: Torsin-1A-interacting protein 1 (Homo sapiens) (UniProt Q5JTV8)
# Sequence (Q5JTV8 whole entry, looked up): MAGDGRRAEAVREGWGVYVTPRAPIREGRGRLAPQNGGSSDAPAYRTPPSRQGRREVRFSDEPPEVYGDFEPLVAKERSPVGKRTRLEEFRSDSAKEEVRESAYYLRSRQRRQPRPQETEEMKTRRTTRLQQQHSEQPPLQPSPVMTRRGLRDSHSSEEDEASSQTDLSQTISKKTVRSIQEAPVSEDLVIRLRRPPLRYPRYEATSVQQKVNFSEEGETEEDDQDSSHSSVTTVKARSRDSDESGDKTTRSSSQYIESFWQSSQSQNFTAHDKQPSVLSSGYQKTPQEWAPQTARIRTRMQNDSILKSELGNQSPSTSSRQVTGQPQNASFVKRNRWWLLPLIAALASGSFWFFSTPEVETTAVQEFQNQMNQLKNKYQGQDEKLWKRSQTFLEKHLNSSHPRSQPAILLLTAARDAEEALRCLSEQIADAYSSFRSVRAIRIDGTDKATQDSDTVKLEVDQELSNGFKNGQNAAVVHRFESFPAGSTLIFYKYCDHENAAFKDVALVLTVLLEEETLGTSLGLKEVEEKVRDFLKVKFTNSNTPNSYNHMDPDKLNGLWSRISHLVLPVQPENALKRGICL
# testDetails: compound microarray binding of lysate hLAP1 – cell lysate, small-molecule microarray, COS7 lysate, 635/667 nm fluorescence, primary screen (AID 1116)
# measurementConditions: 635 nm fluorescence, higher = more signal
param class (str): category from composite z-score; see ranges 0 (below 0.1), 1 (0.1 to below 1), 2 (1 or more)

Please review the entries below; each comes with its answer.
>  <molecule>
CCOC(=O)[C@H]1CC=C2C(=O)Oc3ccccc3[C@@H]21

>  <cat>
0

$$$$
>  <molecule>
OCc1ccc(C2=CC(c3cccs3)N(Cc3cccc(OC(F)(F)F)c3)CC2)cc1 (centres undefined)

>  <cat>
1

$$$$
>  <molecule>
COC(=O)[C@H]1[C@@H](O)[C@@]2(O)c3c(OC)cc(OC)cc3O[C@@]2(c2ccc(OC)cc2)[C@@H]1c1ccccc1

>  <cat>
1

$$$$
>  <molecule>
COC(=O)NCC=Cc1nc(CCC=CC(=O)O[C@H]2CC3CC(=O)O[C@@H](C=CCC(C)C)C[C@@H]4CC[C@H](C)[C@@H](C[C@@H](OC)C[C@H](C2)O3)O4)co1

>  <cat>
1

$$$$
>  <molecule>
CCCc1cc2c(n1CCO)C(C)C1CN(C(=O)c3ccccc3)C(C)(C(=O)OC)C21 (centres undefined)

>  <cat>
2

$$$$

Task: Kindly state the category for this molecule: OCc1ccc(C2=CC(C3CC3)N(Cc3sc4ccccc4c3Cl)CC2)cc1 (centres undefined)
Result: 1

Task: Please let me know in which category the item COC(=O)[C@@]1(Cc2ccc(F)cc2)[C@H]2c3cc(C(=O)N(C)C)[nH]c3C[C@H]2CN1C(=O)c1ccccc1 belongs.
Result: 1

Task: The entry to classify is C[C@@H]1OC=C2[C@@H](O)[C@H]3O[C@H]3C(=O)[C@]23[C@H]1[C@H]1C2=C([C@@H](O)[C@H]4O[C@H]4C2=O)[C@@H]3O[C@@H]1C ; which class holds it?
Result: 0

Task: Tag the class for COC(=O)[C@@]1(Cc2ccccc2)[C@H]2c3cc(C(=O)N(C)C)n(C)c3C[C@H]2CN1C(=O)c1ccccc1
Result: 2

Task: Which bin, given its composite z-score, does c1ccc(-c2cc3c(nc2-c2ccccc2)CCNC3)cc1 occupy?
Result: 0

Task: For CCCc1cc2c(n1Cc1ccc(C)cc1)C(C)C1CN(C(=O)c3ccccc3)C(C)(C(=O)OC)C21 (centres undefined) , which composite z-score bin applies?
Result: 2

---

# testDetails: compound effects on differentiated 3T3-L1 adipocyte viability – cell-based, 3T3-L1 adipocytes, calcein-AM fluorescence, 48 h, basal, profiling panel (AID 1163); also: test concentration not given here
# measurementConditions: 3T3-L1 adipocytes viability, higher = more signal
parameterMeasured: z-score
Format: numeric value only, no unit, no commentary.

>  <compound>
CCCc1cc2c(n1Cc1cccc(Cl)c1)C(C)C1CN(C(=O)c3ccccc3)C(C)(C(=O)OC)C21 (stereo not given)

>  <z-score>
-0.278

$$$$
>  <compound>
CN1CCc2nc(CO)c(CO)cc2C1

>  <z-score>
0.593

$$$$
>  <compound>
COC(=O)NCC=Cc1nc(CCC=CC(=O)O[C@H]2CC3CC(=O)O[C@@H](C=CCC(C)C)C[C@@H]4CC[C@H](C)[C@@H](C[C@@H](OC)C[C@H](C2)O3)O4)co1

>  <z-score>
-0.804

$$$$
>  <compound>
COC(=O)C1(C)C=C2C(=C(C)C(=O)C2C)CN1 (stereo not given)

>  <z-score>
-0.254

$$$$
>  <compound>
c1ccc(-c2cc3c(nc2-c2ccccc2)CCNC3)cc1

>  <z-score>
-0.106

$$$$
>  <compound>
CCc1cc2c(nc1CC)CCN(CCC(C)=NOC)C2

>  <z-score>
0.504

$$$$
>  <compound>
CN1CCC(c2ccc(CO)cc2)=CC1C1CC1 (stereo not given)

>  <z-score>
-0.228

$$$$
>  <compound>
COC(=O)[C@H]1[C@H](c2ccccc2)C(=O)[C@]2(O)c3ccccc3O[C@@]12c1ccccc1

>  <z-score>
0.833

$$$$
>  <compound>
CCOC(=O)[C@H]1CC=C2C(=O)Oc3ccccc3[C@@H]21

>  <z-score>
-0.214

$$$$

Short answer for COC(=O)[C@@]1(Cc2ccc(F)cc2)[C@H]2c3cc(C(=O)N(C)C)[nH]c3C[C@H]2CN1C(=O)c1ccccc1 : z-score was -0.597
